- protocol description: Cytotoxicity against human CEM cells assessed as cell count after 3 days
- Format: cell-based
- experimental context: CEM cells (CCRF-CEM)
Each entry below lists one item and its recorded CC50 at 72 h value.

record smiles	CC50 at 72 h
CCc1c(CNc2nc(N[C@@H](Cc3c[nH]c4ccccc34)C(=O)O)nc(N[C@@H](Cc3c[nH]c4ccccc34)C(=O)O)n2)c(CC)c(CNc2nc(N[C@@H](Cc3c[nH]c4ccccc34)C(=O)O)nc(N[C@@H](Cc3c[nH]c4ccccc34)C(=O)O)n2)c(CC)c1CNc1nc(N[C@@H](Cc2c[nH]c3ccccc23)C(=O)O)nc(N[C@@H](Cc2c[nH]c3ccccc23)C(=O)O)n1	> 250 µM
CCc1c(CC(=O)NC(CCC(=O)O)(CCC(=O)O)CCC(=O)O)c(CC)c(CC(=O)NC(CCC(=O)O)(CCC(=O)O)CCC(=O)O)c(CC)c1CC(=O)NC(CCC(=O)O)(CCC(=O)O)CCC(=O)O	> 250 µM
O=C(CCC(CCC(=O)N[C@@H](Cc1c[nH]c2ccccc12)C(=O)O)(CCC(=O)N[C@H](Cc1c[nH]c2ccccc12)C(=O)O)NC(=O)CN(CC(=O)NC(CCC(=O)N[C@@H](Cc1c[nH]c2ccccc12)C(=O)O)(CCC(=O)N[C@H](Cc1c[nH]c2ccccc12)C(=O)O)CCC(=O)N[C@H](Cc1c[nH]c2ccccc12)C(=O)O)CC(=O)NC(CCC(=O)N[C@H](Cc1c[nH]c2ccccc12)C(=O)O)(CCC(=O)N[C@H](Cc1c[nH]c2ccccc12)C(=O)O)CCC(=O)N[C@H](Cc1c[nH]c2ccccc12)C(=O)O)N[C@@H](Cc1c[nH]c2ccccc12)C(=O)O	59 µM
O=C(O)CCC(CCC(=O)O)(CCC(=O)O)NC(=O)CN(CCN(CC(=O)NC(CCC(=O)O)(CCC(=O)O)CCC(=O)O)CC(=O)NC(CCC(=O)O)(CCC(=O)O)CCC(=O)O)CC(=O)NC(CCC(=O)O)(CCC(=O)O)CCC(=O)O	> 250 µM
